Measured on: human cardiac ion channel proteins hKir3.1/Kir3.4 (Homo sapiens, UniProt P48544+P48549)
Construct: expressed in transfected cells
Sequence (P48549 1-501): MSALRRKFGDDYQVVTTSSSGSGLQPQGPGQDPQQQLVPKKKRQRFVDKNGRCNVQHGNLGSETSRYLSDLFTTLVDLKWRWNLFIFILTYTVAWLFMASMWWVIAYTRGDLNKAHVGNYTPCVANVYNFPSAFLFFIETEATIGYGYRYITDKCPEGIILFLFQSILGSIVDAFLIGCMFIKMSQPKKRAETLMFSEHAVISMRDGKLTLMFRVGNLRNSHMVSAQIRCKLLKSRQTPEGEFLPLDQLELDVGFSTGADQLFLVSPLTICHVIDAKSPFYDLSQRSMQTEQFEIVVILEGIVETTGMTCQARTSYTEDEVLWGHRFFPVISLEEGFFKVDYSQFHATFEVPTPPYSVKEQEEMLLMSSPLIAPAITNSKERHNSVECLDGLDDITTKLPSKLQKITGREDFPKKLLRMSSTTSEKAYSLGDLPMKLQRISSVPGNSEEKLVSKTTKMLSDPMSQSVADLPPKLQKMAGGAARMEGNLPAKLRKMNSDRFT
Sequence (P48544 1-419): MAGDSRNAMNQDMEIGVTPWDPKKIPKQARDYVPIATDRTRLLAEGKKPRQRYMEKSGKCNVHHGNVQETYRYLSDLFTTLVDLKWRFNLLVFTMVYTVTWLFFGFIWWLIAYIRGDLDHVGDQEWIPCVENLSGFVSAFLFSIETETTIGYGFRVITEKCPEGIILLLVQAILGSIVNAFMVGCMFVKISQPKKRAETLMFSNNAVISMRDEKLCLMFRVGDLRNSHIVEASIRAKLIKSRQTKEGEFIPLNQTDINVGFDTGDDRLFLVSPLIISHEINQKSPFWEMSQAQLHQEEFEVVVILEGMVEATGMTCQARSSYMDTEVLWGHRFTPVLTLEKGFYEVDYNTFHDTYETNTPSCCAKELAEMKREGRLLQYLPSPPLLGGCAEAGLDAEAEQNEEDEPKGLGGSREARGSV
Experiment summary: Atomic Absorption Screening (AAS) Rb efflux assay of hKir3.1/Kir3.4 block, carbachol/high K+ stimulated, 10-pt or 7-pt CR
Format: cell-based
Experimental parameters: 10-pt CR (0.003 to 67 μmol/L), AAS Rb efflux, CHO-K1 cells expressing hKir3.1/Kir3.4; mean of >4 replicates; read-out: IKACh IC50 10-pt CR, AAS
Measured attribute: IC50 (µM)
Field format: number, assumed µM, no unit text.

Below, each entry is followed by its recorded IC50 result.
CN(C(=O)c1ccc(C#N)cc1)C(CN1CC(O)C1)C1CCCC1 (single isomer, unassigned) [32.5, isomer 2]: 7.5
CN(C(=O)c1ccc(F)c(F)c1)[C@H](CN1CCCC1)C1CC1: 13
CC(C)[C@@H](CN1CC(O)C1)N(C)C(=O)c1ccc(Br)cc1: 2.5
CN(C(=O)c1ccc(Cl)cc1)[C@H](CN1CCC1)C1CC1: 2.8
CN(C(=O)c1ccc(Br)cc1)[C@H](CN1CCCC1)C(C)(C)C: 14
Cc1cc(C(=O)N(C)[C@H](CN2CC(O)C2)C(C)C)ccc1F: 1.5

Proceed to the following item.
IN: For CN(C(=O)c1ccc(F)c(F)c1)[C@H](CN1CCC1)C1CC1 , what is its reported IC50?
OUT: 12
